Provide the reported GI50 of each item.
Test system: MDA-MB-435
Experiment: NCI tumour cell line growth inhibition, 48 h
Active and inactive are the calls of the source. Rule as the data show it: active = GI50 up to about 1.1 µM and inactive = higher.

Ask | Query: GI50; subject: COc1cc2c(c(OC)c1OC)-c1ccc(OC)c(=O)cc1C(NC(=O)COc1ccccc1)CC2 (stereo unspecified)
Reply | < 0.01 µM (active)

Ask | Query: GI50; subject: COc1ccc2c(-c3ccc(O)cc3)c(Oc3ccc(Cl)cc3)c(=O)oc2c1
Reply | 7.43 µM (inactive)

Ask | Query: GI50; subject: C=CC(C)(C)c1cc([C@@H]2COc3cc(O)ccc3C2=O)c(O)c(O)c1OC
Reply | 19.3 µM (inactive)

Ask | Query: GI50; subject: Nc1c(OCC(=O)O)ccc2cc(S(=O)(=O)O)ccc12
Reply | > 100 µM (inactive)

Ask | Query: GI50; subject: CCCCCCCCCCCCCCCCP(=O)([O-])OCC[N+](C)(C)C
Reply | 17.3 µM (inactive)

Ask | Query: GI50; subject: CCCCNC(=O)OCCN=C1c2ccccc2C(Br)C(Br)c2ccccc21 (stereo unspecified)
Reply | 21 µM (inactive)

Ask | Query: GI50; subject: CO[C@H]1c2cccc3cccc(c23)[C@@H]1n1[nH]c(=O)n(C(C)(C)C)c1=O
Reply | > 100 µM (inactive)

Ask | Query: GI50; subject: N#CC1C(=O)NC2=C(CCOc3c2ccc2ccccc32)C1c1ccc(F)cc1 (stereo unspecified)
Reply | 40.9 µM (inactive)

Ask | Query: GI50; subject: CC1(C)C(=O)C=CC2(C)C1CC(O)C1(C)C2CCC2(C)C(c3ccoc3)OC(=O)C3OC321 (stereo unspecified)
Reply | 23.7 µM (inactive)

Ask | Query: GI50; subject: O=c1[nH]c2nc(S)nc(S)c2[nH]1
Reply | > 100 µM (inactive)

Ask | Query: GI50; subject: CN(C)CCCOC(=O)C(c1ccccc1)C1(O)CCSCC1 (stereo unspecified)
Reply | > 100 µM (inactive)
